List of pIC50 values.
assay: Inhibition of Staphylococcus aureus DNA topoisomerase 4
pIC50: −log10 of the molar value.

Using the record for COc1ccc(C2CC(N3CC[C@@H](CC[C@H](O)c4ccnc5ccc(OC)cc45)[C@@H](C(=O)O)C3)C2)c(F)c1 (some centres undefined) , report its pIC50.
< 3.62

Using the record for COc1ccc2nccc([C@@H](O)CC[C@@H]3CCN(C4CC(c5cccc(OC)c5F)C4)C[C@@H]3C(=O)O)c2c1 (some centres undefined) , report its pIC50.
< 3.70

Using the record for COc1ccc2nccc([C@@H](O)CC[C@@H]3CCN(C4CC(c5ccccc5OC)C4)C[C@@H]3C(=O)O)c2c1 (some centres undefined) , report its pIC50.
< 3.62

Using the record for COc1ccc2nccc([C@@H](O)CC[C@@H]3CCN(C4CC(c5ccc(F)c(C#N)c5)C4)C[C@@H]3C(=O)O)c2c1 (some centres undefined) , report its pIC50.
< 3.70

Using the record for COc1ccc2nccc([C@@H](O)CC[C@@H]3CCN(C4CC(c5cccc(C#N)c5)C4)C[C@@H]3C(=O)O)c2c1 (some centres undefined) , report its pIC50.
< 3.70
